- systemName: TGF-beta receptor type-1
- assayExplanation: Inhibitory activity against TGF-beta type I receptor
pIC50: −log10 of the molar value.

{"recordSmiles": "c1ccc(-c2nn3c(c2-c2ccnc4ccccc24)CCC3)nc1", "pIC50": 6.98}
{"recordSmiles": "Cc1cccc(-c2nn3c(c2-c2ccnc4cc(Cl)ccc24)CCC3)n1", "pIC50": 7.32}
{"recordSmiles": "CCc1cccc(-c2nn3c(c2-c2ccnc4ccccc24)CCC3)n1", "pIC50": 7.15}
{"recordSmiles": "Fc1ccc(-c2nn3c(c2-c2ccnc4ccccc24)CCC3)nc1", "pIC50": 6.82}
{"recordSmiles": "CCSc1ccc2c(-c3c(-c4ccccn4)nn4c3CCC4)ccnc2c1", "pIC50": 6.96}
{"recordSmiles": "CCS(=O)(=O)c1ccc2c(-c3c(-c4ccccn4)nn4c3CCC4)ccnc2c1", "pIC50": 5.03}
